molecular target: Amyloid-beta precursor protein (Homo sapiens, UniProt P05067); test: Inhibition of amyloid beta 42 (unknown origin) self aggregation by Thioflavin T-based fluorometric assay
Sequence (P05067 whole entry): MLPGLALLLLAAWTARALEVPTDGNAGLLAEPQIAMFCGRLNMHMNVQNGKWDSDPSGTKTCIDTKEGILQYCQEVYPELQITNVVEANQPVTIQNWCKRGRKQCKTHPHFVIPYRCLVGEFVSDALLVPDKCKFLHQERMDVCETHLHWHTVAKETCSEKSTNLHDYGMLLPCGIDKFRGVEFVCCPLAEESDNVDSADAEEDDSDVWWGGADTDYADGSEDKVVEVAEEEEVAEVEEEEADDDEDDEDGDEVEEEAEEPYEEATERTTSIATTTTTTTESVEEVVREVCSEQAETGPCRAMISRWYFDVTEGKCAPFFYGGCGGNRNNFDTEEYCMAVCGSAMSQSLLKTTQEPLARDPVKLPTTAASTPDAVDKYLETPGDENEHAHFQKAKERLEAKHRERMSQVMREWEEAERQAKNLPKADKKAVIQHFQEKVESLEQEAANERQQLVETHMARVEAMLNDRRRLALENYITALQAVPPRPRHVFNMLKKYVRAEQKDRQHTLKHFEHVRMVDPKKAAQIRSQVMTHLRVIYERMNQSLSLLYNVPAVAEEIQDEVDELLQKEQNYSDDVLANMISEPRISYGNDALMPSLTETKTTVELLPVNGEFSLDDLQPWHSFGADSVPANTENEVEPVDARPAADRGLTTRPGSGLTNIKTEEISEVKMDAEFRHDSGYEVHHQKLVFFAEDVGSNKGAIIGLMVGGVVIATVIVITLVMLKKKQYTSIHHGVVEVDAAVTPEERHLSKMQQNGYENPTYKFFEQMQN
Measured property: pIC50
Give bare numbers, as −log10 of the molar value.

Exercise: GET pIC50 | system: Amyloid-beta precursor protein (Homo sapiens, UniProt P05067) | item: C=CCSC(=O)/C=C/c1ccc(O)c(O)c1
Key: 4.90

* * *

biological target: Keap1/Nrf2 (Homo sapiens); experiment: Inhibition of human Keap1 KELCH domain (321 to 609 residues) expressed in Escherichia coli BL21 DE3 pLysS cells/Nrf2 (unknown origin) protein-protein interaction preincubated with Keap1 for 1 hr followed by Nrf2 addition and measured after 1 hr by fluorescence polarization assay
Sequence (Q16236 whole entry, the tested form may be a part): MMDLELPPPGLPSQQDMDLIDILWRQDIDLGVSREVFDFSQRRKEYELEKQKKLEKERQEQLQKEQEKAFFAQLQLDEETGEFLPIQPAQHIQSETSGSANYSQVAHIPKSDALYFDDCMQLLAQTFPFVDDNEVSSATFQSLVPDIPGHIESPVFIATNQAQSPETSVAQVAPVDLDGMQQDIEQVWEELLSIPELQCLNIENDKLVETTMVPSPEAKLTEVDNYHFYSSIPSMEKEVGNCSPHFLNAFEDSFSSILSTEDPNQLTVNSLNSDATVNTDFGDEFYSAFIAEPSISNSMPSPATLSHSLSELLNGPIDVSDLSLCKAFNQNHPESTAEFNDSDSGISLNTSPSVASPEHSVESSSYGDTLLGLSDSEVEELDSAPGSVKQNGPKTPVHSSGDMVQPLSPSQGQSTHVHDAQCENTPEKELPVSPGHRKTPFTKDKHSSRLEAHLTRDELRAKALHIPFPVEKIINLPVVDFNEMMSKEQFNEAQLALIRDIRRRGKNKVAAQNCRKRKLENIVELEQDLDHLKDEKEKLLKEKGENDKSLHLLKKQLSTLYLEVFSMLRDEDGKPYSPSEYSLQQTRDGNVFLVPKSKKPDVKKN
Sequence (Q14145 whole entry, the tested form may be a part): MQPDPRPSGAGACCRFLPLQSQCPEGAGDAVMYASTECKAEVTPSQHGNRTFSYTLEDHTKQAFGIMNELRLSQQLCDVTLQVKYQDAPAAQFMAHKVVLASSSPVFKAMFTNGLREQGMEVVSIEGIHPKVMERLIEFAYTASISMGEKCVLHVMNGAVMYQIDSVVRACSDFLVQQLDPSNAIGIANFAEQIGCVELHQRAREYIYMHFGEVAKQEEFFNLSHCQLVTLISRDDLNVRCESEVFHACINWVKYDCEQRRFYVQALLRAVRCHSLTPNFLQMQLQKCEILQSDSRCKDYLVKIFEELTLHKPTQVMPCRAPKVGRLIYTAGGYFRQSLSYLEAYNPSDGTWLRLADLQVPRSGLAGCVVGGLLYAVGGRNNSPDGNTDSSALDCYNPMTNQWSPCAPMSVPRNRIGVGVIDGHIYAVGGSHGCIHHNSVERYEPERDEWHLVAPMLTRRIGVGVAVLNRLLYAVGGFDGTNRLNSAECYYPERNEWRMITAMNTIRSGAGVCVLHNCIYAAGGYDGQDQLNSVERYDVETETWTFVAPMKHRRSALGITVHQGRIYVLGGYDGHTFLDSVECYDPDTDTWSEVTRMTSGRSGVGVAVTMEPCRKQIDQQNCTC
Measured property: IC50 (nM)
One number for each entry, in nM.

Exercise: Please report the measured IC50 for COc1ccc(S(=O)(=O)Nc2ccc(N(CC(N)=O)S(=O)(=O)c3ccc(OC)cc3)c3ccccc23)cc1
Key: 25.7
